- test system: recombinant human tumor necrosis factor-α (Biosource, USA) (human, UniProt P01375 77-233)
- Sequence (P01375 77-233 limits assumed): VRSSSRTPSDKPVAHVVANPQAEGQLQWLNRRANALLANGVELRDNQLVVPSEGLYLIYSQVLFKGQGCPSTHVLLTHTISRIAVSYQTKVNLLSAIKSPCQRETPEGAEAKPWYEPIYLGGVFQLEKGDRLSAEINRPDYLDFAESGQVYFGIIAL
- assay method text: cell-based or functional assay
property label: IC50 (concentration of the antibodies inhibiting cell death by 50%), WHEI 164 cells, MTT (ng/mL)

binder	value observed
mouse monoclonal antibody TSK114 (antibody, V domains shown, Mouse monoclonal antibody (deposits KCTC 10514BP and KCTC 10515BP); also called Mouse antibody TSK114) VH: QVQLVQSGPELKKPGETVKISCKASGYTFTHYGMNWVKQAPGEGLKWMGWINTNTGEPRYDEEFKGRFAFSLETSASTAYLQINNLRREDTATYFCARYDSRGFDCWGQGTTLTVSS VL: QIVLTQSPAIMSASLGERVTMTCTASSSISYNYFHWYQQRPGSSPKLWIYSSSNLASGVPPRISGSGSGTSYSLTISSMEAEDAATYYCHQYERSPWTFGGGTKLEIKR	4.7
